run.description: in vivo
Format: in vivo
applied.conditions: in vivo; rat, oral; Lichfield and Wilcoxon
measured.attribute: LD50 at 240 h (mg/kg)
Numeric only. Scale: mg/kg

Lookup: Endpoint output: LD50 at 240 h of `OCCN1CCN(CCO)CC1` . Value?
Found: 790
